Property: CC50; scope: individual compounds
# System: MDA-MB-231 breast cancer cell line
# protocol.notes: qHTS cell viability screen (Cell Titer Glo), MDA-MB-231
# Type: cell-based

CSc1ccc(/C=C2/C(C)=C(CN(Cc3ccc(F)cc3)Cc3ccc(F)cc3)c3cc(F)ccc32)cc1 > 50 µM
CSc1ccc(/C=C2/C(C)=C(CN(CCc3ccccc3)CCc3ccccc3)c3cc(F)ccc32)cc1 > 50 µM

Next item in the queue.
// lookup CC50 for "COc1cc(/C=C2/C(C)=C(CN(Cc3ccccc3)Cc3ccccc3)c3cc(F)ccc32)cc(OC)c1OC"
> 50 µM

---

Property: EC50; scope: individual compounds
# protocol.notes: BJ cell cytotoxicity counter screen
# assay.conditions: human, BJ cells (normal human foreskin fibroblast cell line)

Consider the following illustrative entries.
COc1cc(/C=C2/C(C)=C(CNC(=O)[C@@H]3CCCN3)c3cc(F)ccc32)cc(OC)c1OC > 22.7 µM
CSc1ccc(/C=C2/C(C)=C(CCN)c3cc(F)ccc32)cc1 > 7.57 µM
CSc1ccc(/C=C2/C(C)=C(CCNC(=O)c3ccco3)c3cc(F)ccc32)cc1 > 7.57 µM
COc1cc(/C=C2/C(C)=C(CNC(=O)[C@@H](N)C(C)C)c3cc(F)ccc32)cc(OC)c1OC > 22.7 µM
CSc1ccc(/C=C2/C(C)=C(CNC(=O)[C@@H](N)CO)c3cc(F)ccc32)cc1 > 22.7 µM

// lookup EC50 for "CSc1ccc(/C=C2/C(C)=C(CNC(=O)[C@@H](N)CC(C)C)c3cc(F)ccc32)cc1"
16.4 µM

Entry to check: "CSc1ccc(/C=C2/C(C)=C(CNS(C)(=O)=O)c3cc(F)ccc32)cc1"
> 22.7 µM

Entry to check: "COc1cc(/C=C2/C(C)=C(CNC(=O)[C@@H](N)CO)c3cc(F)ccc32)cc(OC)c1OC"
> 22.7 µM

Entry to check: "CSc1ccc(/C=C2/C(C)=C(CNC(=O)[C@@H](N)C(C)C)c3cc(F)ccc32)cc1"
16.7 µM

Entry to check: "CSc1ccc(/C=C2/C(C)=C(CNC(=O)[C@@H]3CCCN3)c3cc(F)ccc32)cc1"
> 22.7 µM

---

# Test system: HT29 colorectal carcinoma
# protocol.notes: qHTS cell viability screen (Cell Titer Glo), HT29
# Type: cell-based
observation.type: CC50

CSc1ccc(/C=C2/C(C)=C(CN(Cc3ccc4ccccc4c3)Cc3ccc4ccccc4c3)c3cc(F)ccc32)cc1 > 50 µM
CSc1ccc(/C=C2/C(C)=C(CN(Cc3ccncc3)Cc3ccncc3)c3cc(F)ccc32)cc1 10.8 µM
CSc1ccc(/C=C2/C(C)=C(CN(CCc3ccccc3)CCc3ccccc3)c3cc(F)ccc32)cc1 > 50 µM

// lookup CC50 for "CSc1ccc(/C=C2/C(C)=C(CN(Cc3ccco3)Cc3ccco3)c3cc(F)ccc32)cc1"
> 50 µM

Entry to check: "COc1ccc(CN(CC2=C(C)/C(=C/c3cc(OC)c(OC)c(OC)c3)c3ccc(F)cc32)Cc2ccc(OC)cc2)cc1"
> 50 µM

Entry to check: "COc1cc(/C=C2/C(C)=C(CN(Cc3ccco3)Cc3ccco3)c3cc(F)ccc32)cc(OC)c1OC"
> 50 µM

Entry to check: "COc1cc(/C=C2/C(C)=C(CN(Cc3ccccc3)Cc3ccccc3)c3cc(F)ccc32)cc(OC)c1OC"
> 50 µM

---

# System: BJ cells, normal human foreskin fibroblast cell line
# protocol.notes: BJ cell cytotoxicity counter screen
# assay.conditions: read-out: EC50 BJ (cytotoxicity); BJ normal human foreskin fibroblasts; confidence intervals in parentheses
Property: EC50; scope: individual compounds

Consider the following illustrative entries.
compound	EC50
CSc1ccc(/C=C2/C(C)=C(CCNCc3ccco3)c3cc(F)ccc32)cc1 [Compound 8]	> 7.57 µM
COc1cc(/C=C2/C(C)=C(CNC(=O)CN)c3cc(F)ccc32)cc(OC)c1OC [Compound 29]	> 22.7 µM
CSc1ccc(/C=C2/C(C)=C(CCNCc3ccccc3)c3cc(F)ccc32)cc1 [Compound 7]	> 7.57 µM
CSc1ccc(/C=C2/C(C)=C(CC(=O)NCCN(C)C)c3cc(F)ccc32)cc1 [SSA, Sulindac sulfide amide, reference compound]	> 7.57 µM
CSc1ccc(/C=C2/C(C)=C(CNC(=O)CN)c3cc(F)ccc32)cc1 [Compound 21]	> 22.7 µM

Next item in the queue.
// lookup EC50 for CSc1ccc(/C=C2/C(C)=C(CCNCCN3CCCCC3)c3cc(F)ccc32)cc1 [Compound 9]
> 7.57 µM

---

# Test system: BJ cells, normal human foreskin fibroblast cell line
# protocol.notes: BJ cell cytotoxicity counter screen
# Procedure: Most analogs in the presented series are lipophilic while also containing a positively charged amine. […] Therefore, we evaluated a number of representative compounds against BJ cells, a normal human foreskin fibroblast cell line, where cytotoxicity was determined at 10 µM drug concentration, as described previously. […]
Property: EC50; scope: individual compounds

compound	EC50
CSc1ccc(/C=C2/C(C)=C(CN(Cc3ccncc3)Cc3ccncc3)c3cc(F)ccc32)cc1 [Compound 49]	> 22.7 µM

Next item in the queue.
// lookup EC50 for COc1cc(/C=C2/C(C)=C(CN(Cc3ccncc3)Cc3ccncc3)c3cc(F)ccc32)cc(OC)c1OC [Compound 56]
> 22.7 µM

---

# Test system: RAJI cells (Burkitt's leukaemia/lymphoma)
# protocol.notes: Additional cancer cell line panel, RAJI
# Format: cell-based
# assay.conditions: confidence intervals in parentheses; NA: not active
observation.type: pEC50
Please report pEC50 as the negative decimal logarithm of the molar concentration, giving only the number.

// lookup pEC50 for "COc1cc(/C=C2/C(C)=C(CN(Cc3ccncc3)Cc3ccncc3)c3cc(F)ccc32)cc(OC)c1OC"
4.24

---

# Tested on: MDA-MB-231 breast cancer cell line
# protocol.notes: qHTS cell viability screen (Cell Titer Glo), MDA-MB-231
# Assay type: cell-based
# assay.conditions: MDA-MB-231 breast, 96 hours, cell viability Cell Titer Glo; read-out: CC50 MDA-MB-231
Property: CC50; scope: individual compounds
// return numeric value only (unit: µM, not printed)

CSc1ccc(/C=C2/C(C)=C(CNS(=O)(=O)c3ccc(C)cc3)c3cc(F)ccc32)cc1 20.5

// lookup CC50 for "COc1cc(/C=C2/C(C)=C(CNS(C)(=O)=O)c3cc(F)ccc32)cc(OC)c1OC"
12.9

Entry to check: "CSc1ccc(/C=C2/C(C)=C(CNC(=O)[C@@H](N)C(C)C)c3cc(F)ccc32)cc1"
6.81

---

Property: EC50; scope: individual compounds
# Test system: NALM16 cell line (acute lymphoblastic leukemia)
# protocol.notes: Additional cancer cell line panel, NALM16
# Type: cell-based, human
# assay.conditions: confidence intervals in parentheses; NA: not active
// return numeric value only (unit: µM, not printed)

Consider the following illustrative entries.
COc1cc(/C=C2/C(C)=C(CN(Cc3ccncc3)Cc3ccncc3)c3cc(F)ccc32)cc(OC)c1OC 32
COc1cc(/C=C2/C(C)=C(CNC(=O)CN)c3cc(F)ccc32)cc(OC)c1OC 230

// lookup EC50 for "CSc1ccc(/C=C2/C(C)=C(CN(Cc3ccncc3)Cc3ccncc3)c3cc(F)ccc32)cc1"
0.051

---

Property: melting point; scope: individual molecules

CCS(=O)(=O)NCC1=C(C)/C(=C/c2ccc(SC)cc2)c2ccc(F)cc21 131 to 133 °C
CSc1ccc(/C=C2/C(C)=C(CCNC(=O)c3ccco3)c3cc(F)ccc32)cc1 168 to 170 °C
CCS(=O)(=O)NCC1=C(C)/C(=C/c2cc(OC)c(OC)c(OC)c2)c2ccc(F)cc21 132 to 134 °C
CC1=C(CCNCc2ccccc2)c2cc(F)ccc2/C1=C\c1ccc(S(C)(=O)=O)cc1 96 to 98 °C

// lookup melting point for "COc1cc(/C=C2/C(C)=C(CN(Cc3ccc4ccccc4c3)Cc3ccc4ccccc4c3)c3cc(F)ccc32)cc(OC)c1OC"
95 to 97 °C

Entry to check: "COc1cc(/C=C2/C(C)=C(CNC(=O)[C@@H](N)CO)c3cc(F)ccc32)cc(OC)c1OC"
118 to 120 °C

Entry to check: "COc1cc(/C=C2/C(C)=C(CN)c3cc(F)ccc32)cc(OC)c1OC"
108 to 110 °C

---

# Test system: HT29 colorectal carcinoma
# protocol.notes: qHTS cell viability screen (Cell Titer Glo), HT29
# Assay type: cell-based
# assay.conditions: HT29 colorectal carcinoma, 72 hours, cell viability Cell Titer Glo; read-out: CC50 HT29
observation.type: CC50 (µM)
// return numeric value only (unit: µM, not printed)

Consider the following illustrative entries.
CSc1ccc(/C=C2/C(C)=C(CNC(=O)c3ccco3)c3cc(F)ccc32)cc1 33.2
CSc1ccc(/C=C2/C(C)=C(CCNCc3ccccc3)c3cc(F)ccc32)cc1 21.8
CSc1ccc(/C=C2/C(C)=C(CCNCCN3CCCCC3)c3cc(F)ccc32)cc1 1.81
CSc1ccc(/C=C2/C(C)=C(CNS(=O)(=O)c3ccc(C)cc3)c3cc(F)ccc32)cc1 8.08

Next item in the queue.
// lookup CC50 for "COc1cc(/C=C2/C(C)=C(CNS(=O)(=O)c3ccccc3)c3cc(F)ccc32)cc(OC)c1OC"
43.8
